# Procedure Details: chemical genetic growth profiling, strain panel (AID 1159580);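 also: tested at 20 µM; growth read once vehicle control cultures reached saturation at 30 °C; 1 = growth at the plate median or of vehicle wells; lower values mean less growth of the strain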
# Test Settings: S. cerevisiae deletion strains, growth OD, locus YKL067W, strain YNK1, hits give low values
The whole screen tested about 5,500 compounds, of which about 2,000 (36%) were called active. Another 18% or so got no clear call; they are omitted. The list shows a part of the results.
Readout Kind: normalized growth
Numbers only.

Give normalized growth for each listed item.
1. O=C1Nc2ccccc2/C1=C\c1ccc(Cl)cc1
2. FC(F)(F)c1cccc(NC(=S)NN=C2CCCCCC2)c1

Response:
1: 0.867; 2: 0.92

Record normalized growth per entry; entries follow.
1. CC(NC(=S)N/N=C\c1ccccc1O)c1ccccc1 (stereo not given)
2. Cc1cc(Cl)ccc1NNC(=O)c1sccc1Cl
3. O=C1/C(=C/c2ccccn2)CCc2ccccc21
4. O/N=C(/c1ccc(Cl)cc1)c1cc2ccccc2o1
5. Oc1c(Cl)cc(Cl)cc1/C=N\NC(=S)Nc1cc(C(F)(F)F)cc(C(F)(F)F)c1

Response:
0.992
0.861
0.928
0.893
0.137
